Tested on: Fibroblast
Test: Multiplex assay against human fibroblast
Type: toxicity, cell-based
Settings: 24 h, 1 µM, compound concentration 1 uM, replicate 2
readout-kind: Population Tubulin-Different-Phenotype (%)
Please respond with the number in % and leave the unit unwritten.

Would you kindly share the measured Population Tubulin-Different-Phenotype (%) for `COc1ccc(-c2ccc3c(N4CCOCC4)nc(N4C[C@@H](C)O[C@@H](C)C4)nc3n2)cc1CO` ?
13

Field entry: `O=C(Nc1ccc(-c2ccnc(Nc3ccc(N4CCOCC4)cc3)n2)cc1)[C@@H]1CCCN1`
10

Field entry: CN1CCC(=C2c3ccccc3CC(=O)c3sccc32)CC1.O=C(O)/C=C/C(=O)O [KETOTIFEN FUMARATE]
4

Field entry: `Cn1nc(C(F)(F)F)cc1-c1cnc(N2CCc3cc(S(=O)(=O)Nc4c(F)cc(Cl)cc4F)cc(N4CCCC4=O)c32)nc1`
27
